- assay_comment: Octanol-water partition coefficient, log P of the compound
- Assay type: physicochemical
- condition_label: read-out: logP
readout_name: logP
Format: numeric value only, no unit, no commentary.

Prompt: // logP lookup, key: CC(=O)OC[C@H]1CC[C@H](NC(=O)N(CCCl)N=O)CC1
Response: 3.1

Prompt: Okay, and C[C@H]1S(=O)(=O)C[C@@H](NC(=O)N(CCCl)N=O)CS1(=O)=O ?
Response: -0.4

Prompt: Next entry: CC(=O)O[C@H]1CC[C@H](NC(=O)N(CCCl)N=O)CC1
Response: 2.6

Prompt: Try this compound too: O=COC[C@H]1CC[C@H](NC(=O)N(CCCl)N=O)CC1
Response: 2.6

Prompt: Same for O=NN(CCCl)C(=O)N[C@H]1CCCC[C@@H]1Cl (relative stereo)
Response: 2.7

----------
- assay_comment: Octanol-water partition coefficient, log P of the compound
- Assay type: physicochemical
- condition_label: read-out: logP
readout_name: logP
Lab note: write the figure by itself, no unit.

Prompt: Fill blank: measured logP of the compound CO[C@H]1CC[C@@H](NC(=O)N(CCCl)N=O)CC1 is ____.
Response: 2.4

Prompt: Also need CCOC(=O)[C@H]1CC[C@H](NC(=O)N(CCCl)N=O)CC1 , thanks.
Response: 3.1

Prompt: Lookup COC(=O)[C@H]1CC[C@H](NC(=O)N(CCCl)N=O)CC1
Response: 2.6

Prompt: Then what about the compound O=NN(CCCl)C(=O)N[C@H]1CC[C@@H](NC(=O)N(CCCl)N=O)CC1 ?
Response: 2.7

----------
- assay_comment: Therapeutic index, ratio of LD10 for BDF1 mouse to ED50 for mouse L1210 cells allografted in ip dosed BDF1 mouse
- Assay type: organism-based
- condition_label: in vivo, read-out: TI
Record form. Attribute: selectivity ratio. Fill in for each entry.
Write the value as a bare number.

Prompt: Consider the compound O=NN(CCCl)C(=O)N[C@H]1CCCC[C@@H]1Cl (relative stereo) and give its measured selectivity ratio.
Response: 0.63

Prompt: Next entry: C[C@H]1CC[C@H](NC(=O)N(CCF)N=O)CC1
Response: 0.57

Prompt: Then CO[C@H]1CC[C@H](NC(=O)N(CCCl)N=O)CC1 ?
Response: 0.52

Prompt: Also, C[C@H]1S(=O)(=O)C[C@@H](NC(=O)N(CCCl)N=O)CS1(=O)=O please.
Response: 0.5

Prompt: Also C[C@H]1S(=O)(=O)C[C@H](NC(=O)N(CCCl)N=O)CS1(=O)=O ?
Response: 0.37

Prompt: For O=NN(CCCl)C(=O)N[C@H]1CC[C@H](CC(=O)O)CC1 then?
Response: 0.3

Prompt: Do the same for O=NN(CCCl)C(=O)N[C@H]1CC[C@H](CCl)CC1 please
Response: 0.69

Prompt: Same thing, different compound: O=NN(CCCl)C(=O)N[C@H]1CC[C@@H](O)CC1
Response: 0.48

Prompt: And then O=NN(CCCl)C(=O)N[C@H]1CC[C@H](O)CC1 , what is it?
Response: 0.4

Prompt: Try the compound O=NN(CCCl)C(=O)N[C@H]1CC[C@H](C(=O)O)CC1
Response: 0.57

Prompt: Thanks! And COC(=O)[C@H]1CC[C@H](NC(=O)N(CCCl)N=O)CC1 ?
Response: 0.54

Prompt: Same for O=NN(CCCl)C(=O)N[C@H]1CCC[C@@H](C(=O)O)C1 (relative stereo)
Response: 0.62

Prompt: Would you kindly repeat that for O=COC[C@H]1CC[C@H](NC(=O)N(CCCl)N=O)CC1 ?
Response: 0.45

Prompt: O=NN(CCCl)C(=O)N[C@H]1CC[C@H](C[C@H]2CC[C@H](NC(=O)N(CCCl)N=O)CC2)CC1 , same question.
Response: 0.38

Prompt: // next record O=NN(CCCl)C(=O)NCCCl [CARMUSTINE]
Response: 0.49

Prompt: Likewise for O=NN(CCCl)C(=O)N[C@H]1CC[C@@H](NC(=O)N(CCCl)N=O)CC1 ?
Response: 0.48

Origin of measurements: ChEMBL document CHEMBL3244324
